Tested on: MDA-MB-435 melanoma
procedureText: NCI-60 one-dose screen, 48 h
measurementConditions: 10 µM unless noted
Compounds without any hit were thinned out: in the full panel of roughly 83,000, 20% have a hit. Active and inactive are the calls of the source. Rule for the calls: active = growth percent below 10; inactive = the rest.
Assign a class; possible classes are active, inactive

Input: I would be grateful if you could indicate the recorded call for CS(=O)(=O)Nc1cc(-c2ccc3ncc(C#N)c(Nc4cccc(Cl)c4F)c3c2)cnc1Cl .
Output: active

Input: Input Cc1ccc(-c2nnc(SCc3ccc(O)c4ncccc34)o2)cc1
Output: inactive

Input: Input COc1ccc(-c2nc3ccc(-c4nnc(SCC(=O)Nc5ccc(C(=O)/C=C/c6ccc(Cl)cc6)cc5)o4)cc3[nH]2)cc1
Output: inactive

Input: Input NC(=O)c1cccc(C#CCNC[C@H]2C[C@@H](n3ccc4c(Cl)ncnc43)[C@H](O)[C@@H]2O)c1
Output: active

Input: Input CCCn1cnc2c(c1=N)C(c1ccc(OC)cc1)c1sc3c(C)cccc3c1O2 (centres undefined)
Output: active

Input: Input CCNC(=O)N1CCc2cc(OC)c(OCCc3ccc(OC)cc3)cc2C1c1ccc([N+](=O)[O-])cc1C (centres undefined)
Output: inactive

Input: Input Nc1ccccc1NC(=O)c1ccc(NC(=O)C/C=C/c2cccnc2)cc1
Output: inactive

Input: Input CN(C)CCN(C)c1ccc2ncc(C#Cc3cncc(C(=O)Nc4ccc(CN5CCN(C)CC5)c(C(F)(F)F)c4)c3)n2n1
Output: inactive

Input: Input C#CC(=O)N(c1ccc(OC)cc1OC)C(C(=O)NCC(=O)OCC)c1cccs1 (centres undefined)
Output: inactive

====

System: SK-MEL-2 melanoma
procedureText: NCI-60 one-dose screen, 48 h (100 = growth as untreated, 0 = no growth, -100 = all killed)
measurementConditions: 10 µM unless noted
Compounds without any hit were thinned out: in the full panel of roughly 83,000, 20% have a hit.
# label = T if growth >= 90% else F

Input: Is reported growth greater than or equal to 90% here: N#Cc1cccc(CN2CCC3=C(C2)C(=O)N(Cc2ccc(Cl)cc2)C2=NCCCN23)c1
Output: F

Input: Input N#Cc1cccc(/C(N)=N/C(N)=N/c2nc3ccccc3s2)c1
Output: F

Input: Input COc1ccccc1NCc1cccn1Cc1ccc(F)cc1
Output: T

Input: Input O=C(Nc1cccc(Cl)c1)Nc1nc2ccc([N+](=O)[O-])cc2o1
Output: F

Input: Input CCOP(=O)(OCC)OC[C@]12CCC(C)(C)C=C1[C@H]1CC[C@@H]3[C@@]4(C)CC[C@H](OP(=O)(OCC)OCC)C(C)(C)[C@@H]4CC[C@@]3(C)[C@]1(C)CC2
Output: F

Input: Input COc1ccc(C2c3sc4c(C)cccc4c3Oc3nc(CC(=O)Nc4ccccc4)[nH]c(=O)c32)cc1 (stereo not given)
Output: T

Input: Input Nc1nc(Nc2ccccc2SSc2ccccc2Nc2nc(N)nc(-c3ccc4ccccc4c3)n2)nc(-c2ccc3ccccc3c2)n1
Output: T

Input: Input COc1ccc(COc2ccc(/C=C3\C(=O)Nc4ccccc43)cc2OC)cc1
Output: T

Input: Input N#Cc1cccc(CN2CCc3ncn(Cc4ccc(Cl)cc4)c(=O)c3C2)c1
Output: F

====

Test system: OVCAR-8 ovarian
procedureText: NCI-60 one-dose screen, 48 h (100 = growth as untreated, 0 = no growth, -100 = all killed)
measurementConditions: 10 µM unless noted
About 83,000 compounds went through this panel and 20% of them were active in at least one assay; those are over-represented in the sample as a whole.
# if measured growth < 90%: TRUE  # else: FALSE

Input: A record lists Cc1cc(S(=O)(=O)N(C)C)cc(NCC(=O)NC(=O)NCC(C)C)c1C . Is its growth below 90%?
Output: FALSE

Input: Input Cc1nc2ncc(-c3ccc4ncnc(NCc5ccccc5)c4c3)cc2[nH]1
Output: TRUE

Input: Input COC(=O)c1[nH]nc2c1C1(C(=O)N(C)c3ccccc31)C(C#N)=C(N)O2 (stereo not given)
Output: FALSE

Input: Input Cc1noc(C)c1CSc1nc2ccccc2n1-c1ccccc1
Output: FALSE

Input: Input CCOC(=O)c1c(Nc2ccccc2)nn2c(-c3ccc(Cl)cc3)ccnc12
Output: TRUE

Input: Input CCCSc1nc(Nc2ccc(/C(C)=N\NC(N)=S)cc2)c(C#N)c(-c2ccccc2)n1
Output: TRUE

Input: Input C=CC(=O)N1CC=C(c2cc3c(N[C@H](C)c4ccccc4)ncnc3[nH]2)CC1
Output: TRUE

Input: Input COc1c(N2CC3CCCNC3C2)c(F)cc2c(=O)c(C(=O)N/N=C/c3ccc4c(c3)OCO4)cn(C3CC3)c12 (stereo not given)
Output: TRUE

Input: Input O=C(NCc1ncc[nH]1)c1ccc(-c2nc3ccc4[nH]ncc4c3c3c2CCCC3)cc1
Output: TRUE

Input: Input O=C(CNc1nc(-c2cccc([N+](=O)[O-])c2)cs1)Nc1cccc(Cl)c1
Output: FALSE

Values compiled from PubChem BioAssay (NCI).
